The origin of these recorded values is PubChem BioAssay (NCI).

The reader will find reported growth values listed item by item below.
Tested on: HOP-62 NSCLC
Assay: NCI-60 one-dose screen, 48 h (100 = growth as untreated, 0 = no growth, -100 = all killed)
Conditions: 10 µM unless noted
Method: Growth inhibition of the HOP-62 human Non-Small Cell Lung tumor cell line is measured as a screen for anti-cancer activity. Cells are grown in 96 well plates and exposed to the test compound for 48 hours. Compounds are tested at a single concentration, which is 10^-5 M for most compounds. The reported endpoint is percent growth (GI% or GIPRCNT), where numbers from 0 - 100% represent growth inhibition, and numbers from -100% - 0 represent cell death. […]
Compounds without any hit were thinned out: in the full panel of roughly 83,000, 20% have a hit.
Quantity: growth (%)

structure_string=S=C=Nc1ccc(N2CCOCC2)cc1 quantity=growth numeric_result=89.6
structure_string=CN(C)c1ccc(C(C#N)(c2ccccc2)c2ccc(N(C)C)cc2)cc1 quantity=growth numeric_result=90.6
structure_string=O=C(Nc1ccc(Cl)c(Cl)c1)Nc1ccccc1O quantity=growth numeric_result=88.8
